Molecular target: human Nav1.7 (Homo sapiens (Human), UniProt Q15858)
Sequence (Q15858 other isoform, or with tags, fused parts or gaps): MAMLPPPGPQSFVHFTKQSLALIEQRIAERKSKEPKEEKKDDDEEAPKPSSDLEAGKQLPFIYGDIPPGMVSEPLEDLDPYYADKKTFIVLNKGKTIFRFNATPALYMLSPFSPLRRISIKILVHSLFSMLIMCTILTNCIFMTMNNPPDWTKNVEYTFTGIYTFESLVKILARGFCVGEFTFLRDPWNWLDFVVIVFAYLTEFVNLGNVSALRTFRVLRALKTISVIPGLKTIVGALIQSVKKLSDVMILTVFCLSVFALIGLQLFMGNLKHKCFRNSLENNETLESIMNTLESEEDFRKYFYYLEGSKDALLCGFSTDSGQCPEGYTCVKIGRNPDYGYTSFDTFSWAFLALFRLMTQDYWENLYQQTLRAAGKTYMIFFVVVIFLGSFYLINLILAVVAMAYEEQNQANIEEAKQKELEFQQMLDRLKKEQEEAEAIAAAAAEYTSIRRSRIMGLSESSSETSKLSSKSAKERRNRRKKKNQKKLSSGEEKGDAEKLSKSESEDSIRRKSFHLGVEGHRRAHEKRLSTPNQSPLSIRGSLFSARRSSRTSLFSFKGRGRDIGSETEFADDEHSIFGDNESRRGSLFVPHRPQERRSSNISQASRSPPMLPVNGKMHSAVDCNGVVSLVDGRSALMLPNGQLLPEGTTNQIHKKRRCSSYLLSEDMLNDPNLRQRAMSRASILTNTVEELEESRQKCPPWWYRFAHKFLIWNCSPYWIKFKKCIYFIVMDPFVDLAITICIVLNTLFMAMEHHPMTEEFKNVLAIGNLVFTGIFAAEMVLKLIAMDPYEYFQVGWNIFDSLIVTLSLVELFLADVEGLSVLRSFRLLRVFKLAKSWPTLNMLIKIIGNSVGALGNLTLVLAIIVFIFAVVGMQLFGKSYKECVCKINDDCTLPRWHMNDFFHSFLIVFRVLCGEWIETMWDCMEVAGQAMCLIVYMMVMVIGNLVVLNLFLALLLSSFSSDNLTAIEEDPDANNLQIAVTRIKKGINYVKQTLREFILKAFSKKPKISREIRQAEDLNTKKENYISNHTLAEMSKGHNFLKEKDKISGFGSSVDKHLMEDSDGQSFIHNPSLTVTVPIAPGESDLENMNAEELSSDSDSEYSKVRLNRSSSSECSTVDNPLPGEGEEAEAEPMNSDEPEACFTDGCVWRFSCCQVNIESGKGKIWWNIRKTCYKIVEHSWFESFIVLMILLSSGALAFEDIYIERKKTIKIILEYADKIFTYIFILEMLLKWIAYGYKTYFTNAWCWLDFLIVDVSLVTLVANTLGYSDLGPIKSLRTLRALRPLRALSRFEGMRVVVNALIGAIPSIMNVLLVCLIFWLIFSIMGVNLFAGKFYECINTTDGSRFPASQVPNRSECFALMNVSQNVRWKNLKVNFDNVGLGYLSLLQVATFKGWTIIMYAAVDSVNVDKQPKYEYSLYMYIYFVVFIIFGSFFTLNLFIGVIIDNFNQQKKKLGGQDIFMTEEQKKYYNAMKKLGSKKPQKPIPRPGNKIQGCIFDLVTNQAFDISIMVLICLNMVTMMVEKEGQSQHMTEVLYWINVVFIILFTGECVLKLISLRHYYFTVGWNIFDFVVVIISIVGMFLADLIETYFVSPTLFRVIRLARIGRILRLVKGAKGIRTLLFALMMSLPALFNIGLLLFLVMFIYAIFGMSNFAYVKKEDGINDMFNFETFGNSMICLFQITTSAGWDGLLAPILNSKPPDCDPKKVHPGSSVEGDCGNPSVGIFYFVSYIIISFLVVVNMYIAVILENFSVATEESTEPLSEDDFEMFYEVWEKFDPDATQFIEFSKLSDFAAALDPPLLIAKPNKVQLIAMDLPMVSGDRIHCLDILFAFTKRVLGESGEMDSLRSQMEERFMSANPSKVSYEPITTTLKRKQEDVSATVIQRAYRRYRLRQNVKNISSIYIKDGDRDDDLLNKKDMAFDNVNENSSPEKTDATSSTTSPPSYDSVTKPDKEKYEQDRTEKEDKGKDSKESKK
Test: FLIPR sodium dye assay (CoroNa Green) with KCl and test article pre-incubation
Type: cell-based
Conditions: read-out: Nav1.7 Activity FLIPR assay IC50
READOUT LABEL: pIC50
Lab note: report pIC50 as minus log10 of the concentration in molar units, number only.

INSERT INTO measurements (chemical_string, system_name, readout_label, observed_measurement) VALUES
  ('C[C@H](Nc1cc(C(N)=O)nc(-c2ccc(Oc3ccc(C(F)(F)F)cn3)cc2)n1)C(N)=O', 'human Nav1.7 (Homo sapiens (Human), UniProt Q15858)', 'pIC50', 6.00),
  ('NC(=O)c1cc(N[C@H]2CCNC2=O)nc(-c2ccc(Oc3ccc(C(F)(F)F)cn3)cc2)n1', 'human Nav1.7 (Homo sapiens (Human), UniProt Q15858)', 'pIC50', 6.24);

Please examine the following record next.
pIC50 reported for this compound `C[C@H](Nc1cc(C(N)=O)nc(N2CCC3(CC2)Cc2ccccc2C3)n1)C(N)=O` : 5.74
